These entries and their values trace back to PubChem BioAssay (NCI).

Test system: U251 CNS
ASSAY READOUT: GI50

[[record]]
compound = "CN1CCN(c2cc(C(=O)Nc3cc4cc(-c5cnn(C)c5)ccc4cn3)ccn2)CC1"
test_system = "U251 CNS"
assay_readout = "GI50"
readout_value = "0.188 µM"

[[record]]
compound = "C[C@@H]1Cc2c([nH]c3ccccc23)[C@@H](c2c(F)cc(NC3CN(CCCF)C3)cc2F)N1CC(F)(F)CO"
test_system = "U251 CNS"
assay_readout = "GI50"
readout_value = "6.1 µM"

[[record]]
compound = "CN1CCN(c2ccc(Nc3nc(N)c(C(=O)c4ccc5c(c4)OCCO5)s3)cc2)CC1"
test_system = "U251 CNS"
assay_readout = "GI50"
readout_value = "2.83 µM"

[[record]]
compound = "CCCCCCCCCc1cc[n+](CC(=O)c2ccc([N+](=O)[O-])cc2)cc1"
test_system = "U251 CNS"
assay_readout = "GI50"
readout_value = "0.457 µM"

[[record]]
compound = "Nc1nc2cc3ccc(C4CC(O)C(CO)O4)cc3cc2c(=O)[nH]1 (configuration not stated)"
test_system = "U251 CNS"
assay_readout = "GI50"
readout_value = "> 100 µM"

[[record]]
compound = "COc1cc(Nc2ncc(F)c(Nc3ccc4c(n3)NC(=O)C(C)(C)O4)n2)cc(OC)c1OC"
test_system = "U251 CNS"
assay_readout = "GI50"
readout_value = "> 10 µM"

[[record]]
compound = "CC#C/C(=N\\OC[C@H]1COCCN1)c1ccc2ncnc(Nc3ccc(OCc4cccc(F)c4)c(Cl)c3)c2c1"
test_system = "U251 CNS"
assay_readout = "GI50"
readout_value = "1.71 µM"


====

Test system: PC-3 prostate
Experiment: NCI tumour cell line growth inhibition, 48 h
ASSAY READOUT: TGI

[[record]]
compound = "Cc1oc(N)c(S(=O)(=O)c2ccc(Cl)cc2)c1C"
readout_value = "78 µM"

[[record]]
compound = "Cc1ccc(C(=O)Nc2ccc(S(=O)(=O)O)c3cc(S(=O)(=O)O)cc(S(=O)(=O)O)c23)cc1NC(=S)Nc1cc(C(=O)Nc2ccc(S(=O)(=O)O)c3cc(S(=O)(=O)O)cc(S(=O)(=O)O)c23)ccc1C"
readout_value = "> 75 µM"

[[record]]
compound = "Cc1c2c(n(CCc3ccccc3)c1C)N(C)N=C(C#N)S2(=O)=O"
readout_value = "> 100 µM"

[[record]]
compound = "Nc1nc2cc3ccc(C4CC(O)C(CO)O4)cc3cc2c(=O)[nH]1 (configuration not stated)"
readout_value = "> 100 µM"

[[record]]
compound = "CCCC(=O)O[C@H]1C=C2C[C@@]34SS[C@]5(CC6=C[C@H](OC(C)=O)[C@@H]7O[C@@H]7[C@H]6N5C3=O)C(=O)N4[C@@H]2[C@H]2O[C@H]21"
readout_value = "0.0611 µM"

[[record]]
compound = "COC(=O)C1c2c(c3ccccc3n2C(=O)OC)CCN2CCC1C(S(=O)(=O)c1ccccc1)C2=O (configuration not stated)"
readout_value = "> 100 µM"

[[record]]
compound = "Nc1ncc(Cl)c(NCC2(CO)CC(CCc3ccccc3)C2)n1 (configuration not stated)"
readout_value = "> 100 µM"


====

Test system: SK-MEL-5 melanoma
Assay: NCI tumour cell line growth inhibition, 48 h
ASSAY READOUT: TGI

[[record]]
compound = "CCN(CC)CCCC(C)Nc1ccnc2ccc3nn(C)nc3c12 (stereo not given)"
readout_value = "> 100 µM"

[[record]]
compound = "C#CCN(N=O)C(=O)NC(CCCNC(=O)OCc1ccccc1)C(=O)OCc1ccccc1 (stereo not given)"
readout_value = "> 100 µM"

[[record]]
compound = "O=C(Nc1cccc(Cc2cccc(NC(=O)c3ccccc3)c2)c1)c1ccccc1"
readout_value = "> 100 µM"

[[record]]
compound = "O=C(Nc1cc2c(=O)oc3ccccc3c2oc1=O)c1cccnc1"
readout_value = "> 100 µM"

[[record]]
compound = "Cc1ccc(NC(=O)C(=O)CC(=O)C2CCOC2=O)c(C)c1 (stereo not given)"
readout_value = "> 100 µM"

[[record]]
compound = "COc1cc(C(=O)O[C@@H]2[C@@H](OC(=O)c3cc(OC)c(OC)c(OC)c3)[C@@H](OC)O[C@@H]3CO[C@@H](c4ccccc4)O[C@@H]23)cc(OC)c1OC"
readout_value = "> 100 µM"

[[record]]
compound = "C/C1=C/C(C)CC(C)OC(=O)C(C)NC(=O)C(Cc2ccc(O)c(I)c2)N(C)C(=O)C(C)NC(=O)C(C)C1 (stereo not given)"
readout_value = "11.7 µM"

[[record]]
compound = "O=C(O)Cc1ccc(Oc2nc3ccccc3nc2C(=O)O)cc1"
readout_value = "> 100 µM"

[[record]]
compound = "CC(C)CCC[C@@H](C)C1CCC2[C@@H]3CC=C4C[C@@H](C(=O)NCC[N+](C)(C)CCCS(=O)(=O)[O-])CC[C@]4(C)C3CC[C@@]21C (stereo not given in full)"
readout_value = "41.4 µM"

[[record]]
compound = "CN(C)CCSc1cccc(-c2cc(-c3cccc(SCCN(C)C)c3)nc(SCCN(C)C)n2)c1"
readout_value = "2.96 µM"

